Reported remaining activity at 0.1 µM values follow for various molecules
# target-desc: MPO (Homo sapiens, UniProt P05164)
# Construct: made in house
# Sequence (P05164 49-745): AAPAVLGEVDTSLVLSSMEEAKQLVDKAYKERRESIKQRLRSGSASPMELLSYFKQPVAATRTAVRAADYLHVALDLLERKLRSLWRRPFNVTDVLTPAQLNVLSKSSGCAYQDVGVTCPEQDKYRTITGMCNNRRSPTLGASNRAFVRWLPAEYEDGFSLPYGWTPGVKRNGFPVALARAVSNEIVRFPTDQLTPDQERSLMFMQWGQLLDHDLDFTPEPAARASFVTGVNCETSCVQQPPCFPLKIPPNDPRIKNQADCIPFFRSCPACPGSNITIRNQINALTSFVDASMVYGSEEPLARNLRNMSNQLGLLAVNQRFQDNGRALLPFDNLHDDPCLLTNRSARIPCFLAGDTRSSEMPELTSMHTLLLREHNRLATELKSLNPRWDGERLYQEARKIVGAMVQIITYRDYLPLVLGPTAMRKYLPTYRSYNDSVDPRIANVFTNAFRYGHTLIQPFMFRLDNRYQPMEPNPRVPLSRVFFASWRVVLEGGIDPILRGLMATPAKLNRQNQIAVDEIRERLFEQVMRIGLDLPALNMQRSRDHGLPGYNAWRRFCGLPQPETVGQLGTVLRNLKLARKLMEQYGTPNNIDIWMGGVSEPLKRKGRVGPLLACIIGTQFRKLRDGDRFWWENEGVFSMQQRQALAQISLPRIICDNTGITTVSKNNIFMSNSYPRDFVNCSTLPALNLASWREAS
# protocol-details: Inhibition of LDL oxidation by MPO, ELISA with Mab AG9
# Format: biochemical
# experimental-context: 5 min, pH 7.2, compound 100 nM; MPO 1 μg/ml, LDL 1000 μg/ml, pH 7.2, 37° C., 5 min; mean of six measurements; read-out: LDL oxidation (%)
Where a name gives a salt, the structure may show the parent alone.
test-readout: remaining activity at 0.1 µM (%)

INSERT INTO results (molecule, qualifier_sign, observed_result) VALUES
  ('NCCCc1c[nH]c2ccc(F)cc12 [Compound B, 3-(3-Aminopropyl)-5-fluoro-[1H]-indole]', '=', 19),
  ('NCCCCCc1c[nH]c2ccc(F)cc12 [Compound K, oxalate]', '=', 23.4),
  ('CN(C)CCCc1c[nH]c2ccc(F)cc12', '=', 39.7),
  ('NCCCCCCc1c[nH]c2ccc(F)cc12 [Compound L, oxalate]', '=', 56.1),
  ('NCCCCc1c[nH]c2ccc(F)cc12 [Compound C, oxalate]', '<', 18.5);

###

Reported log10 of 1/IC50 values follow for various compounds
# target-desc: MPO (Homo sapiens, UniProt P05164)
# Construct: made in house
# protocol-details: Myeloperoxidase inhibition (MPO) assay, taurine chloramine production by the MPO/H2O2/Cl- system
# Format: biochemical
# experimental-context: inhibition capability expressed as 1/IC50
Structures can show the parent of a compound that is named as a salt.
test-readout: log10 of 1/IC50 (log10 of the value in µM⁻¹)

INSERT INTO assay_data (compound, test_readout, observed_result) VALUES
  ('NCCCCc1c[nH]c2ccc(F)cc12 [Compound C, oxalate]', 'log10 of 1/IC50', 1.86),
  ('NCCCCCc1c[nH]c2ccc(F)cc12 [Compound K, oxalate]', 'log10 of 1/IC50', 2.09),
  ('Fc1ccc2[nH]cc(CCN3CCCC3)c2c1', 'log10 of 1/IC50', 1.51),
  ('CN(C)CCc1c[nH]c2ccc(F)cc12', 'log10 of 1/IC50', 1.15),
  ('CN(C)CCCc1c[nH]c2ccc(F)cc12', 'log10 of 1/IC50', 1.04),
  ('NCCc1c[nH]c2ccc(F)cc12 [Compound A, 5-fluorotryptamine, reference compound]', 'log10 of 1/IC50', 0.70),
  ('CCN(CC)CCc1c[nH]c2ccc(F)cc12', 'log10 of 1/IC50', 0.85),
  ('NCCCCCCc1c[nH]c2ccc(F)cc12 [Compound L, oxalate]', 'log10 of 1/IC50', 0.58),
  ('NCCCc1c[nH]c2ccc(F)cc12 [Compound B, 3-(3-Aminopropyl)-5-fluoro-[1H]-indole]', 'log10 of 1/IC50', 1.30);

###

# target-desc: MPO (Homo sapiens, UniProt P05164)
# Construct: made in house
# protocol-details: Inhibition of LDL oxidation by MPO, ELISA with Mab AG9
# Assay type: biochemical
# experimental-context: 5 min, pH 7.2, compound 50 nM; MPO 1 μg/ml, LDL 1000 μg/ml, pH 7.2, 37° C., 5 min; mean of six measurements; read-out: LDL oxidation (%)
Where a name gives a salt, the structure may show the parent alone.
test-readout: remaining activity at 0.05 µM (%)

INSERT INTO assay_data (compound, qualifier_sign, observed_result) VALUES
  ('NCCCCc1c[nH]c2ccc(F)cc12 [Compound C, oxalate]', '<', 18.5),
  ('NCCCCCCc1c[nH]c2ccc(F)cc12 [Compound L, oxalate]', '=', 91.8),
  ('NCCCc1c[nH]c2ccc(F)cc12 [Compound B, 3-(3-Aminopropyl)-5-fluoro-[1H]-indole]', '=', 26),
  ('NCCCCCc1c[nH]c2ccc(F)cc12 [Compound K, oxalate]', '=', 29.5),
  ('CN(C)CCCc1c[nH]c2ccc(F)cc12', '=', 42.4);
